- assay: reduced viability of SK-BR-3 breast cancer cells – cell-based, 24 h, human, pilot screen (AID 572);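 also: compound exposure lasted between 18 and 24 h rather than exactly 24 h; 100% = carrier-treated control wells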
- condition.label: SK-BR-3 viability, CellTiter-Glo luminescence, at 10 µM, active compounds read low
Define the label as condition met when viability is strictly less than 90% and as condition not met in all remaining cases.

These recorded examples may help you get a feel for the data.
CCOc1ccc(N(CC(=O)NCc2ccco2)S(=O)(=O)c2ccc(OC)c(OC)c2)cc1	condition met
CCN(CC)c1ccc(NC(=O)c2nc3nc(C)cc(C(F)F)n3n2)cc1	condition not met
O=C1NC2(Nc3ccccc31)C(=O)Nc1ccccc12 (stereo unspecified)	condition not met
Cc1c(C(=O)NC2CC2)oc2ccc(S(=O)(=O)N3CCCCCC3)cc12	condition met
CCOC(=O)N1CCN(C(=O)c2ccc(CS(=O)(=O)c3c(Cl)cccc3Cl)o2)CC1	condition not met
CCCCNC(=O)Cn1c(=O)n(C)c2ccccc21	condition not met
Cc1ccc(N=Cc2ccc(O)cc2O)cc1F	condition not met
CCOC(=O)N1CCN(C(=O)CN(C2CCCCC2)S(=O)(=O)c2ccc(F)cc2)CC1	condition not met

Now take the following molecule into account.
Qu. Regarding COc1ccccc1S(=O)(=O)Cc1ccc(C(=O)N2CCN(c3ccc(C)cc3)C(C)C2)o1 (stereo unspecified) , kindly confirm whether its viability is beneath 90%.
Ans. condition met

====

- assay: viability of PTEN-null HCT116 cells – cell-based, HCT116 clonal line, CellTiter-Glo, pilot screen (AID 824);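 also: 0% = 20 µM Hyamine control and 100% = vehicle cell control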
- condition.label: HCT116 PTEN-deleted viability, 60 h, at 10 µM, active compounds read low
Results filed as inconclusive are left out.
The entries below come with measured viability values attached.
# number only, unit % dropped from output

Field: example entries. Status: answers known.
O=C(C1CCCN(S(=O)(=O)c2cccnc2)C1)N1CCn2c1nc1ccccc12 (stereo not drawn)	99.3
O=C(Nc1ccc2c(c1)OCO2)c1ccc(CN2CCOCC2)cc1	81.5
Oc1c(C(c2ccccc2)N2CCc3ccccc3C2)sc2ncnn12 (stereo not drawn)	93.3
O=C(c1cc2ccccn2n1)N1CCN(Cc2ccccc2)CC1	87.7
Cc1ccc(-n2ncc3c(=O)[nH]c(SC(C)C)nc32)cc1	87.4
CCOc1ccc(Cn2nnc(C(=O)NCc3ccc(OC)cc3)c2N)cc1	94.8

Qu. Returns the measured viability for the input compound. Input: CCNc1ccc(C(=O)OCC)cc1NC(=O)c1cc(S(=O)(=O)N2CCOCC2)ccc1C
Ans. 87.1

Qu. Likewise for O=C(c1ccc2snnc2c1)N1CCOCC1 ?
Ans. 99.4

Qu. Likewise for COc1ccccc1N1CCN(C(CNC(=O)C2CCCCC2)c2cccnc2)CC1 (stereo not drawn) ?
Ans. 94.4

====

- assay: viability of PTEN-null HCT116 cells – cell-based, HCT116 clonal line, CellTiter-Glo, pilot screen (AID 824);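 also: 0% = 20 µM Hyamine control and 100% = vehicle cell control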
- condition.label: HCT116 PTEN-deleted viability, 60 h, at 10 µM, active compounds read low
Records with an inconclusive call do not appear.
Define the label as Y when viability is strictly less than 90% and as N in all remaining cases.

These recorded examples may help you get a feel for the data.
Cc1ccc(NC(=O)CSc2nnc(Cn3c(=O)sc4ccccc43)n2C)cc1	N
CCC(C)NC(=O)c1cn(CC)c2ccc(S(=O)(=O)N(C)C)cc2c1=O (stereo unspecified)	N
O=c1c(-c2ccccc2)coc2c(CN3CCOCC3)c(O)ccc12	N

Qu. Regarding CCOC(=O)N1CCC(Nc2ncnc3c2cnn3-c2ccc(C)cc2C)CC1 , kindly confirm whether its viability is beneath 90%.
Ans. Y

Qu. Likewise for COc1ccc(C(=O)n2nc(C)cc2C)cc1Br ?
Ans. N

Qu. Likewise for CCOc1ccc(C2CC(c3ccc(OC)cc3)n3ncnc3N2)cc1 (stereo unspecified) ?
Ans. N

Qu. Likewise for COc1ccc(C2c3c(oc4ccccc4c3=O)C(=O)N2c2ccc(C)cn2)cc1OC (stereo unspecified) ?
Ans. Y

Qu. Likewise for O=C(Nc1c(C(=O)O)oc2ccc(Br)cc12)c1ccccc1 ?
Ans. N

====

- assay: RAM pathway blockade in budding yeast – dse1pr::URA3 reporter, 5-FOA selection, pilot screen (AID 869);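 also: 0% = DMSO wells with no growth and 100% = 10 µM 1-NA-PP1 with full growth; RAM network block rescues cells from 5-FOA so hits raise OD615 growth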
- condition.label: S. cerevisiae dse1pr::URA3 5-FOA growth, OD615, 2 d; at 10 µM; active compounds read high; strain carries analog-sensitive mutant Cbk1 kinase
The entries below come with measured inhibition values attached.
# number only, unit % dropped from output

Qu. Returns the measured inhibition for the input compound. Input: O=C(CSc1nc2c(cnn2-c2ccc(F)cc2)c(=O)[nH]1)N1CCCCC1
Ans. 2.99

Qu. Likewise for O=C1C(C=NCCCN2CCOCC2)=C(O)c2ccccc21 ?
Ans. 0.71

Qu. Likewise for Cc1nc2ccc(NC(=O)c3ccc(Cl)s3)cc2s1 ?
Ans. 1.84

Qu. Likewise for Cc1noc(C(=O)Nc2ccc3c(c2)OCO3)c1Cl ?
Ans. 2.92

Qu. Likewise for COc1cccc(CNC(=O)CCS(=O)(=O)c2cccc3nsnc23)c1 ?
Ans. 1.32

Qu. Likewise for c1ccc2c(c1)nc(NCCN1CCOCC1)c1nncn12 ?
Ans. -0.055

Qu. Likewise for Cc1nn(C(=O)c2ccoc2C)c(N)c1-c1ccccc1 ?
Ans. 1.68

====

- assay: growth suppression of yeast trafficking mutant, preliminary HTS, modulators of trafficking downstream of Golgi apparatus project, 1536-format plate, OD 615 nm (AID 637)
- condition.label: yeast transport mutant growth, absorbance 615 nm, 18 h; active compounds read high
The entries below come with measured inhibition values attached.
# number only, unit % dropped from output

O=C(/C=C/N1CCOCC1)c1ccc(-c2ccccc2)cc1	-2
O=C(NCCSc1c[nH]c2ccccc12)c1ccc(Br)o1	1.17
CCN1CCN(Cc2nc3c(c(=O)n(C)c(=O)n3C)n2CC(=O)c2ccccc2)CC1	-0.33
Cn1c(=O)oc2cc(S(=O)(=O)NC3CCN(Cc4ccccc4)CC3)ccc21	-1.17
COc1ccc(C)cc1S(=O)(=O)N1CCN(S(=O)(=O)c2cc(C)ccc2OC)CC1	-9.03
CCCCOC(=O)Cn1c(=O)oc2ccc(C)cc21	2.67

Qu. Returns the measured inhibition for the input molecule. Input: CCSc1nc(O)c(CC)c(=O)n1C(C)CC (stereo unspecified)
Ans. -0.48

Qu. Likewise for Cc1ccccc1Cn1cc(/C=N/n2cnnc2)c2ccccc21 ?
Ans. 4.83

Qu. Likewise for COc1ccc(C2C(C(C)=O)=C(C)N=c3s/c(=C/c4ccc5c(c4)OCO5)c(=O)n32)cc1 (stereo unspecified) ?
Ans. -3.49

Qu. Likewise for O=C(c1ccc(NS(=O)(=O)c2cccs2)cc1)N1CCCCC1 ?
Ans. -9.05

Qu. Likewise for O=C(Nc1ccc(Cl)cn1)c1cccnc1 ?
Ans. -6.56

Qu. Likewise for FC(F)(F)COc1nc(N2CCCCC2)nc(N2CCNCC2)n1 ?
Ans. -4

Qu. Likewise for CCOC(=O)c1ccccc1NC(=O)CSc1nccn1C ?
Ans. -3.44

Qu. Likewise for COc1ccccc1-c1nnc(SCC(=O)NC2CCCCC2)o1 ?
Ans. 1.31

Qu. Likewise for CCOC(=O)c1csc(NC(=O)C2CCCCC2)n1 ?
Ans. 0.83

Qu. Likewise for CCCC(=O)C1=C(N(C)c2ccccc2)CC(C)(C)C(C(=O)OC)C1=O (stereo unspecified) ?
Ans. -2.83

Qu. Likewise for CCN(C(=O)c1cc(Cl)ccc1OC)c1ccccc1 ?
Ans. -10.3

Qu. Likewise for COc1ccc(Cl)cc1S(=O)(=O)N1CCN(c2ccc(F)cc2)CC1 ?
Ans. 12.7

Qu. Likewise for Cc1cc(NC(=O)CSc2nc3c(c(=O)n2Cc2ccccc2)SC(C)C3)no1 (stereo unspecified) ?
Ans. -1.83

Qu. Likewise for CCN(CC)CCCN1C(=O)C(O)=C(C(=O)c2ccco2)C1c1ccc(C)o1 (stereo unspecified) ?
Ans. 7.94

Qu. Likewise for Cc1c(C)c2ccc(OC3CCCCC3=O)cc2oc1=O (stereo unspecified) ?
Ans. -2.67

Qu. Likewise for CC1Cc2nc(SCC(N)=O)n(Cc3ccccc3)c(=O)c2S1 (stereo unspecified) ?
Ans. -4.67

Qu. Likewise for Cc1ccc(NC(=O)c2cc(-c3ccc(C)o3)nc3ccccc23)nc1 ?
Ans. -0.82

Qu. Likewise for O=C(Nc1ccc2c(c1)OCCO2)c1cnc2n(c1=O)CCS2 ?
Ans. -2.95

Qu. Likewise for Cc1ccc(-c2nc3cc(NC(=O)C(C)C)ccc3o2)cc1 ?
Ans. -10.3

Qu. Likewise for COc1ccccc1-n1c(=O)[nH]c2c(C(N)=O)nc(CC(C)C)nc21 ?
Ans. -2.17

Qu. Likewise for CCN(CC)CCCNC(=O)c1cn(C)c2ccc(S(=O)(=O)N(C)C)cc2c1=O ?
Ans. 1.5

====

- assay: viability of HCT116 without oncogenic beta-catenin – human colon tumor cells, pilot screen (AID 823);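 also: 0% = wells killed by 20 µM Hyamine and 100% = untreated DMSO cell wells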
- condition.label: HCT116 beta-catenin knockout viability, CellTiter-Glo, 60 h; at 10 µM; active compounds read low
Results filed as inconclusive are left out.
The entries below come with measured viability values attached.
# number only, unit % dropped from output

Field: example entries. Status: answers known.
CC1(C)CC(=O)C2=C(C1)OC(N)=C(C#N)C2c1ccc(OC(=O)N2CCOCC2)cc1 (stereo unspecified)	100
COc1ccc(Nc2ncnc3c2cnn3-c2ccccc2)cc1OC	107

Now for another entry.
Qu. Returns the measured viability for the input molecule. Input: CCCCC(=O)Nc1ccc(Br)cc1C(=O)O
Ans. 89.9
